target_desc: T1, cyno EpCAM expressed on 293 cells (cynomolgus monkey)
T1 construct: whole, on cells; also called 293 cells expressing cyno EpCAM
protocol_notes: FACS on 293 cells expressing cyno EpCAM, pH 6.0

binder	u	EC50
BAP-105.4-01-05 (antibody, V domains shown, Humanized) VH: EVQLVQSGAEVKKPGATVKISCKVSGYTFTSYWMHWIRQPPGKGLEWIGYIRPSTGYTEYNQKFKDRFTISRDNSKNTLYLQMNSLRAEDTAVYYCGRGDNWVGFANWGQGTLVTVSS VL: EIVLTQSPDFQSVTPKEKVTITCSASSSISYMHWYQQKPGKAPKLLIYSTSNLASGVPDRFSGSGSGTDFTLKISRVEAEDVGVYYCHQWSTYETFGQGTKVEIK	µg/mL	1.6
BAP-105.4-02-01 (antibody, V domains shown, Humanized) VH: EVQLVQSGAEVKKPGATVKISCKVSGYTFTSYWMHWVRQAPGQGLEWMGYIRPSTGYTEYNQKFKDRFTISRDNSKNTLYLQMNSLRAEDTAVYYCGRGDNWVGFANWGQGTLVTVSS VL: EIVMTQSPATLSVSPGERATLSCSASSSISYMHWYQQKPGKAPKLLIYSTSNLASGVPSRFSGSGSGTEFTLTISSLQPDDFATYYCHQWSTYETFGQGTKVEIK	µg/mL	2.42
